Tested on: Escherichia coli TOP10;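 also: peptides expressed intracellularly from a pBAD plasmid library in pooled LB shake-flask culture, induced with 0.3% L-arabinose, DNA abundance read by NGS, three biological replicates, DESeq2 with apeglm shrinkage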
Assay: shrunken log2 fold change of peptide-encoding DNA abundance (4.5 h post-induction vs induction); higher = less antimicrobial activity (less host growth inhibition)
Details: time post-induction: 4.5 h; library: site-saturation at positions 5, 18, 19, 20
Examples of sequences with documented shrunken log2 fold change follow.
measure name: shrunken log2 fold change

[[record]]
polymer_sequence = "RRIRHRPPRLPRPRPRPYKRPRP"
assayed_system = "Escherichia coli TOP10"
measure_name = "shrunken log2 fold change"
experimental_value = -0.051

[[record]]
polymer_sequence = "RRIRCRPPRLPRPRPRPSYWPRP"
assayed_system = "Escherichia coli TOP10"
measure_name = "shrunken log2 fold change"
experimental_value = -0.71

[[record]]
polymer_sequence = "RRIRFRPPRLPRPRPRPDVNPRP"
assayed_system = "Escherichia coli TOP10"
measure_name = "shrunken log2 fold change"
experimental_value = 0.00585


Sourced from the supplement of paper PMC9112550
